- MEASUREMENT TARGET: Fyn (UniProt P06241)
- Sequence (P06241 whole entry, looked up): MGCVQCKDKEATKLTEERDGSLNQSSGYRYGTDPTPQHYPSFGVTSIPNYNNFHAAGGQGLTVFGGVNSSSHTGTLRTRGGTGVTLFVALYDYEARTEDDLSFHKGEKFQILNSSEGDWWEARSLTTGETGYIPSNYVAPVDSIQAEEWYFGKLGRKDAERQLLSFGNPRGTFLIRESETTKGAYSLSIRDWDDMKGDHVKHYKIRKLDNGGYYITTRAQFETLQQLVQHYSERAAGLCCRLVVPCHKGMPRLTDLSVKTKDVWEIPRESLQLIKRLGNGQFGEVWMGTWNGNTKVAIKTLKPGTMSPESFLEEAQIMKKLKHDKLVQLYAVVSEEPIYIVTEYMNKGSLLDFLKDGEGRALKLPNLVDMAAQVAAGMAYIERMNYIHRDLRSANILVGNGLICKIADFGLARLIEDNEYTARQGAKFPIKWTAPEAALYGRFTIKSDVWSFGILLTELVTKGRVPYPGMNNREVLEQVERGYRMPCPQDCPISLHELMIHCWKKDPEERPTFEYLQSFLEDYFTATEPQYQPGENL
- TEST: phosphorylation enrichment, bacterial display (enrichment ratio); higher = better substrate or ligand; peptides without Tyr show the background;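 note: 11-residue human phosphosite peptides and single-mutation variants displayed on the E. coli surface, counted by deep sequencing, each peptide's frequency after selection divided by its frequency in the unselected input library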;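 note: frequency after pTyr selection over input frequency; kinase dosed for 20-30% of maximal phosphorylation in three min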
Please use the following phosphorylation enrichment ranges when assigning a class: lower segment = under 0.5, middle segment = from 0.5 up to 0.6, upper segment = 0.6 and over

| CONSTRUCT SEQUENCE | CLASSIFICATION |
| --- | --- |
| KYLENYLNCLL [PLD2_Y169_R172C] | lower segment |
| NRVEIYDKTVE [CYFIP1_Y108_E109D] | lower segment |
| VKANTYENYWP [GATM_Y100_K102N] | upper segment |
| KDQGIYEDYVE [MYL6_Y86_T85I] | upper segment |
| YSGDYYRIQGR [DDR2_Y741] | upper segment |
| FGEFRYRSVIK [CFTR_Y517_D513G_YF] | lower segment |
| SGFESYGSSSY [RPA2_Y9] | lower segment |
| GANFEYIIAEK [ECHS1_Y35] | lower segment |
| LARDIYKNDFF [ROS1_Y2110_YF] | upper segment |
| KNSSIYVVANI [VNN1_Y134_N131S] | middle segment |
| SGVSYYINLCQ [IGF2R_Y2025_N2020S] | lower segment |
| KALKQYRASPS [DDX27_Y763_G766S] | lower segment |
| GEDLSYGDLPP [IRS1_Y151_V154L] | middle segment |
| KDGNGYISAAE [CALM1_Y100] | lower segment |
| GGGCGYNRSSG [FUS_Y232_G230C] | lower segment |
| VIEQRYNETWL [SLC2A4_Y56_S55R] | middle segment |
| QEVLEYFMKQM [PIK3CA_Y1038_A1035V] | upper segment |
| MRTMGYMPTEM [CABP5_Y62] | lower segment |
| QSSEGYGLGDR [KIAA1210_Y564] | upper segment |
| KLSCSYSHWSA [C4BPA_Y470] | middle segment |
| EFLKNYFTDKA [DSG2_Y775_R773K] | middle segment |
| MFCAGYDTKQE [F10_Y407] | middle segment |
| EGTATYAAAIL [JUP_Y644_V648I] | upper segment |
| YSIDHYLGKEM [G6PD_Y202_R198S] | middle segment |
| LHQSTYQRYDV [SLC7A14_Y693] | lower segment |
| AKRKGYDMRVD [NEB_Y2770] | lower segment |
| RASDYYSQQMA [GBP6_Y334_A331S] | lower segment |
| IRFPPYTDWNQ [ALDH3B2_Y365_H361R_YF] | lower segment |
| TDLAYYLVREG [ASL_Y376_K380E] | upper segment |
| PSAVAYPKRSQ [MARK3_Y432_V429A] | middle segment |
| TDHLRYFDSNK [ARAP1_Y359] | lower segment |
| GLVFLYMEKNQ [PRELP_Y156] | lower segment |
| TFEYRYLEDRD [CNOT3_Y746] | middle segment |
| RAVLLYEYVGK [NATD1_Y45] | upper segment |
| VSLEAYCKHKY [RXRA_Y403_A398V] | upper segment |
| WFPANYVKLLS [ITSN1_Y1132] | lower segment |
| ATHRGYDLDNP [MMUT_Y146_S148L] | lower segment |
| EKLQKYYRKNP [EHHADH_Y682_Q685K] | lower segment |
| RGGDSYGGPPR [RBMX_Y190_R187G] | middle segment |
| NPPGMYPVTGP [LPP_Y346] | lower segment |
| EVDELYREAPI [MYL12B_Y143] | upper segment |
| VEDHFYEGGIG [TKT_Y564_YF] | upper segment |
| PLDGGYFTLQI [TP53_Y327_E326G] | upper segment |
| QKLPSYILENN [VPS13B_Y2774] | upper segment |
| MSRNLYSGDFF [DDR2_Y736_YF] | upper segment |
| ANSPVYVPTTR [GATA6_Y188_S184N] | lower segment |
| TSPKSCPSQKH [CAP2_Y316_Y316C] | lower segment |
| PLDGEYFTPQI [TP53_Y327_L330P] | upper segment |
| FGAHNYHPLPV [OAT_Y55_YF] | lower segment |
| IDQDKYAVHFI [FLNA_Y2388_R2391H] | lower segment |
| NDDDVYLSLEE [VAV2_Y142_R143L] | upper segment |
| VHKEGYNKLNQ [ZNF676_Y98] | lower segment |
